Numbers sourced from ChEMBL document CHEMBL3988442.

TARGET OF ASSAY: Tyrosyl-tRNA synthetase, putative (Trypanosoma cruzi (strain CL Brener))
ASSAY OVERVIEW: Trypanosoma cruzi tyrosyl tRNA synthetase (TcYRS) _High Tyrosine SOP
Type: functional
Set-up: scale not given: in the data most compounds retested in dose-response had high values
TEST SETTINGS: 30 µM
// classify: if (Percent Effect < 2%) T else F

Would you please look over these solved cases?
>  <MOLECULE>
CCCc1noc(CN2CCCC2c2ccsc2)n1 (stereo unspecified)

>  <CATEGORY>
T

$$$$
>  <MOLECULE>
O=C(CCC1CCCC1)NCCn1nc(C2CCNC2)c2cccnc21 (stereo unspecified)

>  <CATEGORY>
F

$$$$

Next up:
Please state whether Percent Effect is below 2% for Cn1cccc1C(=O)N1CCN(CC2CC2)c2ncccc2C1 T
